Listed below: IC50 values for each entry.
biological target: human CaSR (Homo sapiens, UniProt P41180); assay: CaSR FLIPR assay (calcilytic activity); format: cell-based; set-up: expressed in transfected cells; settings: HEK293 cells stably expressing human recombinant CaSR; 1 mM CaCl2 agonist; Tables 1-24; read-out: FLIPR ASSAY IC50
Sequence (P41180 20-1078): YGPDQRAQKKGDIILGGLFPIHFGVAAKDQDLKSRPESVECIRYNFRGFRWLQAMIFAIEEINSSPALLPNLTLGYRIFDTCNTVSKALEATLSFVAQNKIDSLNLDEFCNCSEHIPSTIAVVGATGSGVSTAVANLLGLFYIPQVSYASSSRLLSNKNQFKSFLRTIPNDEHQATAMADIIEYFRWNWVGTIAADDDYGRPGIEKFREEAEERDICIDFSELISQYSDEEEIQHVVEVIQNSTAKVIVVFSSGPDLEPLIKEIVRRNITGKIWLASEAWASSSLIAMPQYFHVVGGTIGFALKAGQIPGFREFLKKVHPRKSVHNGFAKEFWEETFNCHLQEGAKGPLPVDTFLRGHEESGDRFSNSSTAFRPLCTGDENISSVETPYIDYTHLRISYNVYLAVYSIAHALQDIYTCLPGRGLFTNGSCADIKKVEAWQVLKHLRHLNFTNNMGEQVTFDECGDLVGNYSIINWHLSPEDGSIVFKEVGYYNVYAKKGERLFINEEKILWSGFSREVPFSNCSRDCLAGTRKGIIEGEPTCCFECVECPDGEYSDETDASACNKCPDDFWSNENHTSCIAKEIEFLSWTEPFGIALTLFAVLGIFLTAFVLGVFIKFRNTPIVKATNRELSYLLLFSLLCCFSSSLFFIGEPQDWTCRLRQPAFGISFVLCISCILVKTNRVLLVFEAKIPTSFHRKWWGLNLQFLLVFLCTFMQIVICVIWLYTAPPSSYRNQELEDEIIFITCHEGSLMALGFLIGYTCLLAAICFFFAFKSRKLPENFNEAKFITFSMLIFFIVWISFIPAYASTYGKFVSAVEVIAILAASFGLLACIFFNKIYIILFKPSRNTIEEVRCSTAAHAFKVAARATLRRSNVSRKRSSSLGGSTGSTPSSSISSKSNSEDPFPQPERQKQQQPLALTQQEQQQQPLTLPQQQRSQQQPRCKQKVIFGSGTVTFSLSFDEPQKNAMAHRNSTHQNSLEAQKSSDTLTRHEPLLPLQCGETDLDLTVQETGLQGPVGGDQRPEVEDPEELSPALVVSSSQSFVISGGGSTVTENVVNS

MOLECULE	IC50
C[C@@H](OC[C@H](O)CNC(C)(C)Cc1ccc([S+](C)[O-])c(F)c1)c1cccc2c1O[C@@H]1[C@@H](C(=O)O)[C@H]21 (stereo partly drawn)	> 10000 nM
C[C@@H](OC[C@H](O)CNC(C)(C)Cc1ccc2sccc2c1)c1cccc2c1O[C@@H]1[C@@H](C(=O)O)[C@H]21	27 nM
C[C@@H](OC[C@H](O)CNC(C)(C)CC1Cc2ccccc2C1)c1cccc2c1O[C@@H]1[C@@H](C(=O)O)[C@H]21	40 nM
C[C@@H](OC[C@H](O)CNC(C)(C)CCCc1ccccc1)c1cccc2c1O[C@@H]1[C@@H](C(=O)O)[C@H]21	38 nM
CSc1ccc(CC(C)(C)NC[C@@H](O)CO[C@H](C)c2cccc3c2[C@@H]2[C@H](C3)[C@H]2C(=O)O)cc1F	130 nM
C[C@@H](OC[C@H](O)CNC(C)(C)Cc1ccc(F)c(F)c1)c1cccc2c1O[C@@H]1[C@@H](C(=O)O)[C@H]21	1270 nM

###

assay: Pharmacokinetic evaluation in rats; assay type: in vivo, rat; conditions: rat, plasma, dose and route not given, read-out: Clp (plasma clearance)
Collected clearance values appear next to each entry.
MEASURE: clearance (mL/min/kg)

COMPOUND	MEASURED_NUMBER
CSc1ccc(CC(C)(C)NC[C@@H](O)CO[C@H](C)c2ccc(C)c3c2C2[C@H](O3)[C@H]2C(=O)O)cc1F (stereo partly drawn)	40
C[C@@H](OC[C@H](O)CNC(C)(C)Cc1ccc2ccccc2c1)c1cccc2c1[C@@H]1[C@H](O2)[C@H]1C(=O)O	52.5
C[C@@H](OC[C@H](O)CNC(C)(C)Cc1ccc2ccccc2c1)c1cccc2c1O[C@@H]1[C@@H](C(=O)O)[C@H]21	11

###

target: human CaSR (Homo sapiens, UniProt P41180); test: CaSR FLIPR assay (calcilytic activity); format: cell-based; design: expressed in transfected cells; conditions: HEK293 cells stably expressing human recombinant CaSR; 1 mM CaCl2 agonist; Tables 1-24; read-out: FLIPR ASSAY IC50
pIC50: −log10 of the molar value.
Short version: pIC50 at least 7 is YES, less is NO.

COMPOUND_STRING	CLASS_LABEL
Cc1ccc([C@@H](C)OC[C@H](O)CNC2(Cc3ccc4ccccc4c3)CCC2)c2c1O[C@H]1[C@H](C(=O)O)[C@@H]21	NO
CSc1ccc(CC(C)(C)NC[C@@H](O)CO[C@H](C)c2cccc3c2[C@@H]2[C@H](O3)[C@H]2C(=O)O)cc1Cl	YES
CSc1ccc(CC(C)(C)NC[C@@H](O)CO[C@H](C)c2ccc(C)c3c2[C@@H]2[C@H](O3)[C@H]2C(=O)O)cc1Cl	YES
C[C@@H](OC[C@H](O)CNC(C)(C)Cc1ccc2ccccc2c1)c1cccc2c1[C@H]1[C@@H](C2)[C@@H]1C(=O)O	NO

###

target: human CaSR (Homo sapiens, UniProt P41180); assay: CaSR FLIPR assay (calcilytic activity); assay type: cell-based; design: expressed in transfected cells; conditions: summary table; read-out: FLIPR CaSR (IC50)

COMPOUND	UNIT_ABBREVIATION	IC50
C[C@@H](OC[C@H](O)CNC(C)(C)Cc1ccc2ccccc2c1)c1cccc2c1O[C@@H]1[C@@H](C(=O)O)[C@H]21	nM	22
C[C@@H](OC[C@H](O)CNC(C)(C)Cc1ccc2ccccc2c1)c1cccc2c1[C@@H]1[C@H](O2)[C@H]1C(=O)O	nM	9
CSc1ccc(CC(C)(C)NC[C@@H](O)CO[C@H](C)c2ccc(C)c3c2C2[C@H](O3)[C@H]2C(=O)O)cc1F (stereo partly drawn)	nM	20
